Value source: paper PMC4324418

# test-protocol: Amphetamine-induced hyperlocomotion in rats
# Type: in vivo
# study-conditions: Sprague-Dawley, rat, brain, po, 56.6 mg/kg, mean Cbrain,u, PO 56.6 mg/kg, 1.5 h, in vitro rat fubrain 0.067
experimental-readout: concentration at 1.5 h (nM)

>>> test_value("Cc1nnc2sc(C(=O)NCc3ccc(S(=O)(=O)C(F)(F)F)cc3)c(N)c2c1C")
94
